System: sciatic nerve of rats
METHOD: First local anesthetic experiment of rats: blocking of sciatic nerve, mechanical withdrawal threshold (VFH, von Frey filaments)
Format: in vivo
SETTINGS: rats, 0.2 ml injected close to sciatic nerve; tested drug 5 mmol/L solution (micelle); lidocaine 2% aqueous solution (84 mmol/L)
From the text: Selected above micelle, positive control lidocaine, and negative control normal saline were respectively administrated to 28 groups of test rats fully adapted to experiment environment, with five rats for each group. […]
Structures can show the parent of a compound that is named as a salt.
PROPERTY_NAME: Effective local anesthetic time (min)
Enter your answer as a number in min; do not include the unit.

Here's what some known entries look like.
>>> value_reported("CCCCCCCCCOC(=O)OCC[N+](CC)(CC)CC(=O)Nc1c(C)cccc1C [Example21product]")
18
>>> value_reported("CCN(CC)CC(=O)Nc1c(C)cccc1C [2% lidocaine hydrochloride, lidocaine hydrochloride, reference compound]")
1

IN: Specify reported Effective local anesthetic time for the compound shown: CC[N+](CC)(CCOC(C)=O)CC(=O)Nc1c(C)cccc1C
OUT: 20

IN: State its Effective local anesthetic time: CCCCCCCCCCCC(=O)OCC[N+](CC)(CC)CC(=O)Nc1c(C)cccc1C
OUT: 20

IN: Report Effective local anesthetic time for CCCCCCCCCOC(=O)OCC[N+](CC)(CC)CC(=O)Nc1c(C)cccc1C [Example22product]
OUT: 18

IN: Write down Effective local anesthetic time measured for item CCCCCCCCCCCCCCCC(=O)OCC[N+](CC)(CC)CC(=O)Nc1c(C)cccc1C
OUT: 18
